Values from paper PMC4147775

- Test system: fibrosarcoma cells (HT1080)
- Procedure text: Cytotoxicity: mitochondrial membrane potential (TMRM)
- Condition description: Homo sapiens, HT-1080, 72 h, read-out: mitochondrial membrane potential in fibrosarcoma cells, IC50
Measurement kind: IC50

Kindly note the recorded IC50 for COCc1c(C(C)C)nc(C(C)C)c(/C=C/[C@@H](O)C[C@@H](O)CC(=O)O)c1-c1ccc(F)cc1 [Cerivastatin] , which is 2600 nM

====

- Measurement target: BRD2(1) (Homo sapiens, UniProt P25440)
- Construct: the second as compared with the first bromodomain of these BRDs
- Sequence (P25440 74-180 limits assumed): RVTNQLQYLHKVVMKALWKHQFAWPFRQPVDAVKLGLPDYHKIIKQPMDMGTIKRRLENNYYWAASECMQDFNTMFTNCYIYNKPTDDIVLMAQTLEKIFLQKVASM
- Procedure text: Protein stability shift assay (thermal shift), BRD2(1)
- Type: binding
- Condition description: 10 μM ligand
// reported Thermal shift (ΔTm obs) BRD2(1) per item
Hey, just send me the number, nothing else.

The value of Thermal shift (ΔTm obs) BRD2(1) measured for the compound "Cc1nnc2n1-c1sccc1C(c1ccc3c(c1)OCO3)=NC2" turned out to be 0.3

Value of Thermal shift (ΔTm obs) BRD2(1) reported for the compound "Cc1nnc2n1-c1sccc1C(c1ccccc1)=NC2(C)C" is −1.1

What the record says about "Cc1nnc2n1-c1sccc1C(c1ccccc1)=NC2" : Thermal shift (ΔTm obs) BRD2(1) is 0.1

Attention now turns to another entry.
Query COc1cc(OC)c2c(=O)[nH]c(-c3cc(C)c(OCCO)c(C)c3)nc2c1 [RVX-208, reference compound] yields Thermal shift (ΔTm obs) BRD2(1) of 0.9

====

- Measurement target: BRD4(1) (Homo sapiens)
- Procedure text: Isothermal titration calorimetry, BRD4(1)
- Type: binding
- Set-up: 2 μM for the first bromodomain in BRD4 and 0.5 μM for the second bromodomain in BRD3
- Condition description: binding affinity, ITC, first bromodomain in BRD4, rounded in text
Measurement kind: Kd (nM)
Respond with the bare value in nM.

Tested on BRD4(1) (Homo sapiens), the item Cc1nnc2n1-c1sccc1C(c1ccccc1)=NC2(C)C [MDCO-3770] showed Kd equal to 2000

====

- Measurement target: PCAF (Homo sapiens)
- Construct: Thermal shift (Δtm^obs) of human bromodomains in the presence of 10 μM compound
- Sequence (Q92831 723-827 limits assumed): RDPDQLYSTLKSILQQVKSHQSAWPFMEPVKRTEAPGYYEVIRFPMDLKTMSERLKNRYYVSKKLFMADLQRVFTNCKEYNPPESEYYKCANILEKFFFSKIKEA
- Procedure text: Protein stability shift assay (thermal shift), PCAF
- Type: binding
- Condition description: 10 μM ligand
Measurement kind: Thermal shift (ΔTm obs) PCAF

Lab note: compound COc1cc(OC)c2c(=O)[nH]c(-c3cc(C)c(OCCO)c(C)c3)nc2c1 [RVX-208, reference compound] tested on PCAF (Homo sapiens); recorded Thermal shift (ΔTm obs) PCAF was −0.4

Known value: PCAF (Homo sapiens) Thermal shift (ΔTm obs) PCAF of the compound Cc1nnc2n1-c1sccc1C(c1ccc3c(c1)OCO3)=NC2 [MDCO-3783] equals 1.9

Next:
Lab entry: PCAF (Homo sapiens) assay, compound Cc1nnc2n1-c1sccc1C(c1ccccc1)=NC2 [MDCO-3760] , Thermal shift (ΔTm obs) PCAF = 2.2

Per the reported PCAF (Homo sapiens) data, Cc1nnc2n1-c1sccc1C(c1ccccc1)=NC2(C)C [MDCO-3770] has Thermal shift (ΔTm obs) PCAF of 1.5

====

- Measurement target: central BZD receptor
- Procedure text: Binding to central BZD receptor, 3H-flunitrazepam, rat cerebral cortex membranes
- Condition description: 3H-flunitrazepam, rat cerebral cortex membranes, reference
Measurement kind: pIC50
pIC50 (log units): -log10 of the concentration in mol/L.

Recorded pIC50 (molecule CN1C(=O)CN=C(c2ccccc2)c2cc(Cl)ccc21 [Diazepam, reference compound] ): 7.70

====

Listed here are compounds together with their documented Thermal shift (ΔTm obs) BRD3(1).
- Measurement target: BRD3(1) (Homo sapiens, UniProt Q15059)
- Construct: the second as compared with the first bromodomain of these BRDs
- Sequence (Q15059 34-140 limits assumed): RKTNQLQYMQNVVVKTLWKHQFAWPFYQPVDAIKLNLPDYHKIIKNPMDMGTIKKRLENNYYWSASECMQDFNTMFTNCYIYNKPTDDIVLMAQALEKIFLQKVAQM
- Procedure text: Protein stability shift assay (thermal shift), BRD3(1)
- Format: binding
- Condition description: 10 μM ligand
Could you respond with only the numeric value?

Completed entries (count: 3):
With BRD3(1) (Homo sapiens, UniProt Q15059) as the test system, COc1cc(OC)c2c(=O)[nH]c(-c3cc(C)c(OCCO)c(C)c3)nc2c1 [RVX-208, reference compound] showed Thermal shift (ΔTm obs) BRD3(1) of 0.8

Summary: "Cc1nnc2n1-c1sccc1C(c1ccccc1)=NC2(C)C" , BRD3(1) (Homo sapiens, UniProt Q15059), Thermal shift (ΔTm obs) BRD3(1) = −0.2

Considering "Cc1nnc2n1-c1sccc1C(c1ccccc1)=NC2" , its Thermal shift (ΔTm obs) BRD3(1) with BRD3(1) (Homo sapiens, UniProt Q15059) was recorded as 1.9

***
Result for "Cc1nnc2n1-c1sccc1C(c1ccc3c(c1)OCO3)=NC2" , tested on BRD3(1) (Homo sapiens, UniProt Q15059), Thermal shift (ΔTm obs) BRD3(1): 1.8

====

Consider the following compounds and their measured Thermal shift (ΔTm obs) BAZ2B readings.
- Measurement target: BAZ2B (Homo sapiens)
- Construct: Thermal shift (Δtm^obs) of human bromodomains in the presence of 10 μM compound
- Sequence (Q9UIF8 2060-2164 limits assumed): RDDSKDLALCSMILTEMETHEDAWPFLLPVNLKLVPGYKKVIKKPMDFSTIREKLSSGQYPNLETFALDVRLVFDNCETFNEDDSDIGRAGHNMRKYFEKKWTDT
- Procedure text: Protein stability shift assay (thermal shift), BAZ2B
- Format: binding
- Condition description: 10 μM ligand
Give the figure by itself; no unit, no explanation.

Field Thermal shift (ΔTm obs) BAZ2B (BAZ2B (Homo sapiens)), entry COc1cc(OC)c2c(=O)[nH]c(-c3cc(C)c(OCCO)c(C)c3)nc2c1 [RVX-208, reference compound] : −0.2

// compound "Cc1nnc2n1-c1sccc1C(c1ccccc1)=NC2(C)C" , assay BAZ2B (Homo sapiens), Thermal shift (ΔTm obs) BAZ2B value: −0.4

// assay BAZ2B (Homo sapiens), entry "Cc1nnc2n1-c1sccc1C(c1ccccc1)=NC2" , Thermal shift (ΔTm obs) BAZ2B value = 0.1

The reported BAZ2B (Homo sapiens) Thermal shift (ΔTm obs) BAZ2B of "Cc1nnc2n1-c1sccc1C(c1ccc3c(c1)OCO3)=NC2" is 0.0

====

Measured Thermal shift (ΔTm obs) BRD3(2), listed per entry.
- Measurement target: BRD3(2) (Homo sapiens, UniProt Q15059)
- Sequence (Q15059 306-415 limits assumed): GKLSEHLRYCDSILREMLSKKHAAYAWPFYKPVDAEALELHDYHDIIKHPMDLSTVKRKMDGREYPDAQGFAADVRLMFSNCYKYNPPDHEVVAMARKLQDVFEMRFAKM
- Procedure text: Protein stability shift assay (thermal shift), BRD3(2)
- Assay type: binding
- Set-up: the second as compared with the first bromodomain of these BRDs
- Condition description: 10 μM ligand
Form field (numeric): enter value without unit.

The recorded Thermal shift (ΔTm obs) BRD3(2) with BRD3(2) (Homo sapiens, UniProt Q15059) for COc1cc(OC)c2c(=O)[nH]c(-c3cc(C)c(OCCO)c(C)c3)nc2c1 [RVX-208, reference compound] was 4.0

The measured Thermal shift (ΔTm obs) BRD3(2) that Cc1nnc2n1-c1sccc1C(c1ccc3c(c1)OCO3)=NC2 [MDCO-3783] showed for BRD3(2) (Homo sapiens, UniProt Q15059) is 2.1

Reading of Thermal shift (ΔTm obs) BRD3(2) for Cc1nnc2n1-c1sccc1C(c1ccccc1)=NC2 [MDCO-3760] with BRD3(2) (Homo sapiens, UniProt Q15059): 3.0

Would you kindly look at the next entry?
Observed Thermal shift (ΔTm obs) BRD3(2) on BRD3(2) (Homo sapiens, UniProt Q15059), entry Cc1nnc2n1-c1sccc1C(c1ccccc1)=NC2(C)C [MDCO-3770] , equals 5.3

====

- Procedure text: Metabolic stability in human hepatocytes
- Format: in vitro ADME
- Condition description: cryopreserved human hepatocytes, donor 2, 10 μM, read-out: stability in human hepatocytes (% remaining after 120 min)
Measurement kind: remaining at 2 h, 10 μM (%)
Express the result in % but write the number alone.

Data point: "Cc1nnc2n1-c1sccc1C(c1ccccc1)=NC2(C)C" ; remaining at 2 h, 10 μM = 97

====

- Measurement target: PB1(5) (Homo sapiens)
- Construct: Thermal shift (Δtm^obs) of human bromodomains in the presence of 10 μM compound
- Sequence (Q86U86 653-763 limits assumed): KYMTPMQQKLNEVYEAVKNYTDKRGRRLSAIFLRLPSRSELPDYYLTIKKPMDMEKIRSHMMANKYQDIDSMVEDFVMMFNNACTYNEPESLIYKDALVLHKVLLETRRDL
- Procedure text: Protein stability shift assay (thermal shift), PB1(5)
- Assay type: binding
- Condition description: 10 μM ligand
The entries below come with measured Thermal shift (ΔTm obs) PB1(5) values attached.

PB1(5) (Homo sapiens) assay, compound Cc1nnc2n1-c1sccc1C(c1ccccc1)=NC2(C)C [MDCO-3770] , recorded Thermal shift (ΔTm obs) PB1(5) = −0.5

More entries:
Readout Thermal shift (ΔTm obs) PB1(5) for Cc1nnc2n1-c1sccc1C(c1ccc3c(c1)OCO3)=NC2 [MDCO-3783] , test system PB1(5) (Homo sapiens), was 0.0

Param item: COc1cc(OC)c2c(=O)[nH]c(-c3cc(C)c(OCCO)c(C)c3)nc2c1 [RVX-208, reference compound] ; param system: PB1(5) (Homo sapiens); output Thermal shift (ΔTm obs) PB1(5): 0.0

For Cc1nnc2n1-c1sccc1C(c1ccccc1)=NC2 [MDCO-3760] on PB1(5) (Homo sapiens), measured Thermal shift (ΔTm obs) PB1(5) was −4.7

====

- Procedure text: Metabolic stability in human hepatocytes
- Format: in vitro ADME
- Condition description: cryopreserved human hepatocytes, donor 1, 10 μM, read-out: stability in human hepatocytes (% remaining after 120 min)
In this section, each of the compounds is paired with its reported remaining at 2 h, 10 μM.

# remaining at 2 h, 10 μM of O=C(O)Cc1ccccc1Nc1c(Cl)cccc1Cl [Diclofenac, reference compound] = 70%

Entry "Cc1nnc2n1-c1sccc1C(c1ccccc1)=NC2" ; remaining at 2 h, 10 μM = 105%

Input "Cc1nnc2n1-c1sccc1C(c1ccc3c(c1)OCO3)=NC2" . Output remaining at 2 h, 10 μM: 97%

Attention now turns to another entry.
The recorded remaining at 2 h, 10 μM for entry C[C@]12CC[C@H]3[C@@H](CCC4=CC(=O)CC[C@@]43C)[C@@H]1CC[C@@H]2O [Testosterone, reference compound] equals 64%
